The following variants are listed with their measured abundance fitness values.
B1: Zinc finger MYM-type protein 6, residues 427 to 504; numbered along this chain, O95789 (parent)
chain: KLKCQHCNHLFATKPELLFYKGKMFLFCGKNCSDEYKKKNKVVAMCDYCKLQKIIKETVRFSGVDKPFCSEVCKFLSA

Variants of: B1
measurement notes: abundance fitness (aPCA) (normalised: wild type 0, dead -1); higher = more abundant; growth selection in yeast, the domain comes from the species named
run parameters: Homo sapiens

variant identifier	abundance fitness
K21W	-0.133
L76Y	-0.189
Y48E	-0.861
I55Q	-0.185
Q52V	0.173
N40P	-0.172
F25C	-0.004
F61C	0.561
K74M	0.544
K74L	-0.594
Y48S	-0.52
G29E	-0.131
K30Y	-0.028
K39V	-0.023
K56H	-0.113
V59Y	-0.536
N40V	-0.03
F25D	-0.031
D65G	-0.488
A44K	0.117
S33V	-0.054
K30T	-0.123
R60H	0.001
D47L	0.177
F75C	0.677
V43H	-0.763
E35W	-0.11
Y36M	-0.093
V64D	0.474
S62V	-0.536
F27L	-0.073
S77N	-0.434
C46S	-0.703
S70W	-1.14
T58E	-0.277
L26V	0.037
E57G	-0.163
C46D	-0.531
L51A	0.187
K30H	-0.063
I55S	0.305
K66W	-0.845
R60G	-0.215
S33Y	-0.14
K30P	-0.107
Y48T	-0.014
K39S	0.003
I55G	0.16
K50Y	-0.48
P67A	-0.51
L76T	-0.109
G22W	-0.226
K38A	0.023
K74E	-0.39
C73P	-1.51
A44G	-0.132
C32T	-1.29
I54V	0.131
K74G	-0.427
K53R	-0.308
K39R	-0.004
F75N	0.487
V59E	-0.053
P67V	0.27
K50T	-0.687
K38P	-0.163
D34L	-0.14
Y36V	-0.15
S77E	-0.615
S33A	-0.032
K74S	-0.705
S70L	-0.162
L26K	0.09
K66L	-0.889
R60E	0.008
M45V	-0.145
V59W	-0.344
K50V	-0.96
V59L	0.051
K37C	-0.074
V64R	0.058
K37Q	0.051
K56P	0.182
E71T	0.076
F61H	-0.151
M24G	-0.059
K39M	-0.087
C46P	-0.248
C73I	-0.753
L76W	-0.174
Y36K	-0.661
